Data provenance is patent US4966973A.

- measurementTarget: 5-lipoxygenase (Rattus norvegicus)
- Construct: endogenous in cells; host or cells: RBL-1 (rat basophilic leukemia) cells
- Sequence (P12527 whole entry): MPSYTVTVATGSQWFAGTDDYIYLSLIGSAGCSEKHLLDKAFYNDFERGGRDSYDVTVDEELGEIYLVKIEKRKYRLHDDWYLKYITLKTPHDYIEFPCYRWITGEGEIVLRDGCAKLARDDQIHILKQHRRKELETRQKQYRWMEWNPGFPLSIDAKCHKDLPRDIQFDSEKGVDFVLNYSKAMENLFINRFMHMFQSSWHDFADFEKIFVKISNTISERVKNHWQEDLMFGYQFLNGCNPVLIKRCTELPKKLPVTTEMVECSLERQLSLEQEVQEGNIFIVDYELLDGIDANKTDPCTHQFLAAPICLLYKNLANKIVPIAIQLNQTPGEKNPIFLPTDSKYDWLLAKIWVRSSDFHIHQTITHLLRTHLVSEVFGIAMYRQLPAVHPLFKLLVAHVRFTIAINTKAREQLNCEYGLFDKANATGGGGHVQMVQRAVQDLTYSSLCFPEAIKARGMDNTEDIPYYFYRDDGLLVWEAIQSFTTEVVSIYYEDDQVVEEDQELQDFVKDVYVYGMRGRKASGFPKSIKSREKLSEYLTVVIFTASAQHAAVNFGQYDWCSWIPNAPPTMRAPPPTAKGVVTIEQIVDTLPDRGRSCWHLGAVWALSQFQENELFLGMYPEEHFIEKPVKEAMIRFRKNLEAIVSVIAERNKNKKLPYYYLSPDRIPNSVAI
- protocolText: Effect of Inhibiting 5-Lipoxygenase (inhibition of 5-HETE production in RBL-1 cells, HPLC)
- Assay type: cell-based
- assayContext: 10^-8 M, arachidonic acid + A-23187, 37° C., 20 min, read-out: % Inhibition (IE) of 5-HETE production
Rule: t for inhibition at 0.01 µM not less than 10%, f for anything less.

Look over these answered cases.
{"compound": "Cc1c(C)c2c(c(C)c1O)CC(C)(CNCCc1ccccc1)O2 (centres unmarked)", "answerLabel": "t"}
{"compound": "CCCCCCCCSCC1Cc2c(C)c(O)c(C)c(C)c2O1 (centres unmarked)", "answerLabel": "t"}
{"compound": "Cc1c(C)c2c(c(C)c1O)CC(C)(CSc1ccccc1)O2 (centres unmarked)", "answerLabel": "f"}
{"compound": "Cc1c(C)c2c(c(C)c1O)CC(CSc1ccc(F)cc1)O2 (centres unmarked)", "answerLabel": "f"}
{"compound": "Cc1c(C)c2c(c(C)c1O)CC(CSc1ccccc1)O2 (centres unmarked)", "answerLabel": "t"}
{"compound": "Cc1c(C)c2c(c(C)c1O)CC(CSCCC(=O)O)O2 (centres unmarked)", "answerLabel": "t"}

Now look at this one.
Can Cc1c(C)c2c(c(C)c1O)CC(C)(CSc1ccc(F)cc1)O2 (centres unmarked) be said to have inhibition at 0.01 µM at or above 10%?
t
